Can you tell me KIDNEY_R for the items I'm about to list?
Species on record: Rattus norvegicus
experimental_protocol: Open TG-GATES - Regimen: Single
Assay type: toxicity, organism-based, Sprague-Dawley
Parameters: regimen Single, gender Male, age 6 weeks
test_settings: in vivo, po, 100 mg/kg, 24 h, tissue Kidney, route gavage, dose level High
Your answer is read as g, so omit the unit and give the number.

Exercise: Fill blank: measured KIDNEY_R of the compound CN(C)CCCN1c2ccccc2CCc2ccc(Cl)cc21 [CLOMIPRAMINE] is ____.
Solution: 1

Exercise: Fill blank: measured KIDNEY_R of the compound CC1=C(/C=C/C(C)=C/C=C/C(C)=C/CO)C(C)(C)CCC1 [RETINOL] is ____.
Solution: 0.9

Exercise: Fill blank: measured KIDNEY_R of the compound CN(C)CCCN1c2ccccc2CCc2ccccc21 [IMIPRAMINE] is ____.
Solution: 0.9

Exercise: Fill blank: measured KIDNEY_R of the compound `CN(C)CCN(Cc1cccs1)c1ccccn1` is ____.
Solution: 0.9

Data credit: ChEMBL document CHEMBL3885861
